- assay_procedure: Mean residence time in iv dosed rat
- Format: ADME, organism-based
- experimental_parameters: in vivo
Quick reference: MRT of the listed items.
Respond numerically; units are min and should not be typed.

# annotated cases, reported MRT shown
{"columns": ["smiles_text", "unit_annotation", "MRT"],
 "data": [
  ["C[C@@H](c1ccc(OC(F)F)cc1)N1CC[C@](CCC(N)=O)(c2ccccc2)OC1=O", "min", 33],
  ["C[C@@H](c1ccc(OC(F)F)cc1)N1CC[C@](CC(C)(C)O)(c2ccccc2)OC1=O", "min", 50.4],
  ["C[C@@H](c1ccc(Br)cc1)N1CC[C@](CCC(N)=O)(c2ccc(F)cc2)OC1=O", "min", 72]
]}

Shift focus to the following entry.
Exercise: Give the value of MRT reported for the following: C[C@@H](c1ccc(OC(F)F)cc1)N1CC[C@](CCC(N)=O)(c2ccc(F)cc2)OC1=O
Key: 50.4

* * *

- tested_system: UniProtKB Q12809
readout_name: pIC50
In simple prose, pIC50 is minus the logarithm base ten of a concentration in moles per litre.

{"columns": ["smiles_text", "pIC50"],
 "data": [
  ["C[C@@H](c1ccc(OC(F)F)cc1)N1CC[C@](CCC(N)=O)(c2ccc(F)cc2)OC1=O", 5.28]
]}

Exercise: Give the value of pIC50 reported for the following: C[C@@H](c1ccc(Br)cc1)N1CC[C@](CCC(N)=O)(c2ccc(F)cc2)OC1=O
Key: 5.20

* * *

- tested_system: hERG (Homo sapiens, UniProt Q12809)
- Sequence (Q12809 whole entry): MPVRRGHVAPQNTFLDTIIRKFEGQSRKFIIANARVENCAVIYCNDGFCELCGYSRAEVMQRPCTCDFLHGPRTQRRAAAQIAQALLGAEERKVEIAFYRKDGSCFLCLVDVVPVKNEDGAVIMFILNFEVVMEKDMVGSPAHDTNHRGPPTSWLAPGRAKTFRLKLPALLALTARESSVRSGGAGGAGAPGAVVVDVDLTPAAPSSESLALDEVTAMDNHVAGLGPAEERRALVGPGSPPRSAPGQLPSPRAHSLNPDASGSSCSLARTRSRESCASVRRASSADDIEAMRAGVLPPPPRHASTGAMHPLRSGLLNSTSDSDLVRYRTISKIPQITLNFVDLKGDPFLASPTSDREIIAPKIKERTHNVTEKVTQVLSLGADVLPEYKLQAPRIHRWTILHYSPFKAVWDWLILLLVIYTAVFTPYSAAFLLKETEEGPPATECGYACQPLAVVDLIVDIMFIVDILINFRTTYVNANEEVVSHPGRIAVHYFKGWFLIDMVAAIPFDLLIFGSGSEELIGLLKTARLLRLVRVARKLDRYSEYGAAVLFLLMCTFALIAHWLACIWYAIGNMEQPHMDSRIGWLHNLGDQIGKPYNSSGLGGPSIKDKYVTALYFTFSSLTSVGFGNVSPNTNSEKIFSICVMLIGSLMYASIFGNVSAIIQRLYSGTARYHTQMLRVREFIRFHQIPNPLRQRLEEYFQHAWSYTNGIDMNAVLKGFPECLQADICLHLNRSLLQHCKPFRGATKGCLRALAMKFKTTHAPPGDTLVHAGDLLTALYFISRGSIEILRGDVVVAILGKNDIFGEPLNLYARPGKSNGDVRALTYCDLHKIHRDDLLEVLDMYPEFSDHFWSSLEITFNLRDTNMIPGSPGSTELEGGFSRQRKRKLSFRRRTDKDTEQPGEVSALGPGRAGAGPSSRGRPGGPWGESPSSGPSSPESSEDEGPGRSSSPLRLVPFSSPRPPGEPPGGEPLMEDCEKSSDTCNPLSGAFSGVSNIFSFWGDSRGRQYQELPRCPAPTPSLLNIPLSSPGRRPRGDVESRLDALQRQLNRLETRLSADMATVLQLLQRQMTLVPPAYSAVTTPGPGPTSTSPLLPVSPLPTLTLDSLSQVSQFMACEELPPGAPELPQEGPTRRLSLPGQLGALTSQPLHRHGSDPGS
- assay_procedure: Inhibition of human ERG at 10 uM by patch clamp assay relative to control
readout_name: inhibition at 10 µM (%)
Respond numerically; units are % and should not be typed.

{"columns": ["smiles_text", "tested_system", "inhibition at 10 µM, %"],
 "data": [
  ["Cc1ncc(-c2ccc([C@H](C)N3CC[C@](CC(C)(C)O)(c4ccccc4)OC3=O)cc2)cn1", "hERG (Homo sapiens, UniProt Q12809)", 12]
]}

Exercise: Report inhibition at 10 µM under test system hERG (Homo sapiens, UniProt Q12809) for C[C@@H](c1ccc(-c2ccc(=O)n(C)n2)cc1)N1CC[C@](CC(C)(C)O)(c2ccccc2)OC1=O .
Key: 50

* * *

Quick reference: log10 IC50 of the listed items.
- tested_system: Cytochrome P450 3A4 (Homo sapiens, UniProt P08684)
- Sequence (P08684 whole entry): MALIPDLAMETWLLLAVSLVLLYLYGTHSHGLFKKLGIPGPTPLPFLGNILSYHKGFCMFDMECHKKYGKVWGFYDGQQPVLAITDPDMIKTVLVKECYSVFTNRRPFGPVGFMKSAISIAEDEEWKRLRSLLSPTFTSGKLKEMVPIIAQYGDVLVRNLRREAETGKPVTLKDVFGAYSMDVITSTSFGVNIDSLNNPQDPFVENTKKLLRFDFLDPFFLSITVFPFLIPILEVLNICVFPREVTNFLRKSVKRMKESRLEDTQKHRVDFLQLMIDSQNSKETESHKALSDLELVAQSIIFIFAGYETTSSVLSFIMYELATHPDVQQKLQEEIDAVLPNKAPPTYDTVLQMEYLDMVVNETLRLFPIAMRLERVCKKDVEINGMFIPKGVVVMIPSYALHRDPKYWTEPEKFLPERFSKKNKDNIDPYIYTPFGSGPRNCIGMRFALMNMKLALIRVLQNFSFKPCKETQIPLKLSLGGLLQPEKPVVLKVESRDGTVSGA
- assay_procedure: Inhibition of recombinant CYP3A4 (unknown origin)
In plain terms, each number is the log10 of measured IC50 in µM.

# annotated cases, reported log10 IC50 shown
{"columns": ["smiles_text", "result_number"],
 "data": [
  ["C[C@@H](c1ccc(OC(F)F)cc1)N1CC[C@](CC(C)(C)O)(c2ccccc2)OC1=O", 1.00],
  ["C[C@@H](c1ccc(-c2ccccn2)cc1)N1CC[C@](CCCO)(c2ccccc2)OC1=O", 1.36],
  ["C[C@@H](c1ccc(-c2ccncc2)cc1)N1CC[C@](CCCO)(c2ccccc2)OC1=O", 0.26],
  ["C[C@@H](c1ccc(Br)cc1)N1CC[C@](CC(C)(C)O)(c2ccc(F)cc2)OC1=O", 0.54],
  ["C[C@@H](c1ccc(OC(F)F)cc1)N1CC[C@](CCC(N)=O)(c2ccc(F)cc2)OC1=O", 1.43]
]}

Shift focus to the following entry.
Exercise: Give the value of log10 IC50 reported for the following: C[C@@H](c1ccc(-c2ccc(=O)n(C)c2)cc1)N1CC[C@](CCCO)(c2ccccc2)OC1=O
Key: 1.02

* * *

- assay_procedure: Oral bioavailability in rat
- Format: ADME, organism-based
- experimental_parameters: in vivo
readout_name: bioavailability (%)
Respond numerically; units are % and should not be typed.

# annotated cases, reported bioavailability shown
{"columns": ["smiles_text", "bioavailability (%)"],
 "data": [
  ["C[C@@H](c1ccc(-c2ccc(C(N)=O)cn2)cc1)N1CC[C@](CC(C)(C)O)(c2ccccc2)OC1=O", 15],
  ["C[C@@H](c1ccc(Br)cc1)N1CC[C@](CCC(N)=O)(c2ccc(F)cc2)OC1=O", 42]
]}

Exercise: Give the value of bioavailability reported for the following: C[C@@H](c1ccc(OC(F)F)cc1)N1CC[C@](CCC(N)=O)(c2ccc(F)cc2)OC1=O
Key: 77

Exercise: Give the value of bioavailability reported for the following: C[C@@H](c1ccc(OC(F)F)cc1)N1CC[C@](CC(C)(C)O)(c2ccccc2)OC1=O
Key: 57

Exercise: Give the value of bioavailability reported for the following: C[C@@H](c1ccc(OC(F)F)cc1)N1CC[C@](CCC(N)=O)(c2ccccc2)OC1=O
Key: 51

* * *

- tested_system: Cytochrome P450 3A4 (Homo sapiens, UniProt P08684)
- assay_procedure: Inhibition of recombinant CYP3A4 (unknown origin)
readout_name: IC50

{"columns": ["smiles_text", "IC50"],
 "data": [
  ["C[C@@H](c1ccc(-c2ccc(=O)n(C)n2)cc1)N1CC[C@](CC(C)(C)O)(c2ccccc2)OC1=O", "> 50 µM"]
]}

Exercise: Report IC50 under test system Cytochrome P450 3A4 (Homo sapiens, UniProt P08684) for COc1ccc(-c2ccc([C@H](C)N3CC[C@](CCCO)(c4ccccc4)OC3=O)cc2)cn1 .
Key: > 30 µM

Exercise: Report IC50 under test system Cytochrome P450 3A4 (Homo sapiens, UniProt P08684) for Cc1cc(-c2ccc([C@H](C)N3CC[C@](CCCO)(c4ccccc4)OC3=O)cc2)cc(C)n1 .
Key: > 30 µM

Exercise: Report IC50 under test system Cytochrome P450 3A4 (Homo sapiens, UniProt P08684) for C[C@@H](c1ccc(Br)cc1)N1CC[C@](CCC(N)=O)(c2ccc(F)cc2)OC1=O .
Key: > 30 µM

* * *

- assay_procedure: Half life in rat liver microsomes
- Assay type: ADME, microsome
readout_name: half-life

# annotated cases, reported half-life shown
{"columns": ["smiles_text", "half-life"],
 "data": [
  ["C[C@@H](c1ccc(-c2ccc3ncnn3c2)cc1)N1CC[C@](CC(C)(C)O)(c2ccccc2)OC1=O", "> 1.5 h"],
  ["C[C@@H](c1ccc(-c2ccc(=O)n(C)c2)cc1)N1CC[C@](CC(C)(C)O)(c2ccccc2)OC1=O", "> 1.5 h"],
  ["C[C@@H](c1ccc(-c2ccc(C#N)cn2)cc1)N1CC[C@](CC(C)(C)O)(c2ccccc2)OC1=O", "> 1.5 h"],
  ["C[C@@H](c1ccc(-c2ccc(F)cn2)cc1)N1CC[C@](CC(C)(C)O)(c2ccccc2)OC1=O", "> 0.75 h"],
  ["C[C@@H](c1ccc(-c2ccc(=O)n(C)n2)cc1)N1CC[C@](CC(C)(C)O)(c2ccccc2)OC1=O", "> 1.5 h"]
]}

Shift focus to the following entry.
Exercise: Give the value of half-life reported for the following: C[C@@H](c1ccc(OC(F)F)cc1)N1CC[C@](CC(C)(C)O)(c2ccccc2)OC1=O
Key: > 1 h

* * *

- tested_system: UniProt:Q12809
- assay_procedure: Inhibition of human ERG at 10 uM by patch clamp assay relative to control
readout_name: inhibition at 10 µM

{"columns": ["smiles_text", "tested_system", "result"],
 "data": [
  ["C[C@@H](c1ccc(-c2ccn(C)c(=O)c2)cc1)N1CC[C@](CC(C)(C)O)(c2ccccc2)OC1=O", "UniProt:Q12809", "< 10%"],
  ["C[C@@H](c1ccc(-c2ccc(=O)n(C)c2)cc1)N1CC[C@](CC(C)(C)O)(c2ccccc2)OC1=O", "UniProt:Q12809", "< 10%"]
]}

Exercise: Give the value of inhibition at 10 µM reported for the following: Cc1ccc(-c2ccc([C@H](C)N3CC[C@](CC(C)(C)O)(c4ccccc4)OC3=O)cc2)nn1
Key: < 10%

* * *

- tested_system: Cytochrome P450 3A4 (Homo sapiens)
- assay_procedure: Inhibition of recombinant CYP3A4 (unknown origin)
pIC50: −log10 of the molar value.
Quick reference: pIC50 of the listed items.

# annotated cases, reported pIC50 shown
{"columns": ["smiles_text", "result"],
 "data": [
  ["Cc1cnc(-c2ccc([C@H](C)N3CC[C@](CC(C)(C)O)(c4ccccc4)OC3=O)cc2)cn1", "< 4.30"],
  ["C[C@@H](c1ccc(Br)cc1)N1CC[C@](CCO)(c2ccc(F)cc2)OC1=O", "< 4.52"]
]}

Exercise: Give the value of pIC50 reported for the following: C[C@@H](c1ccc(OC(F)F)cc1)N1CC[C@](CCC(N)=O)(c2ccccc2)OC1=O
Key: < 4.52

* * *

- assay_procedure: Half life in rat liver microsomes
- Type: ADME, microsome
Quick reference: half-life of the listed items.

# annotated cases, reported half-life shown
{"columns": ["smiles_text", "result"],
 "data": [
  ["Cc1ncc(-c2ccc([C@H](C)N3CC[C@](CC(C)(C)O)(c4ccccc4)OC3=O)cc2)cn1", "> 1.5 h"],
  ["C[C@@H](c1ccc(-c2ccn(C)c(=O)c2)cc1)N1CC[C@](CC(C)(C)O)(c2ccccc2)OC1=O", "> 1.5 h"],
  ["C[C@@H](c1ccc(OC(F)F)cc1)N1CC[C@](CC(C)(C)O)(c2ccc(F)cc2)OC1=O", "> 1 h"],
  ["C[C@@H](c1ccc(OC(F)F)cc1)N1CC[C@](CCC(N)=O)(c2ccc(F)cc2)OC1=O", "> 1 h"]
]}

Shift focus to the following entry.
Exercise: Give the value of half-life reported for the following: C[C@@H](c1ccc(-c2ccc(C(N)=O)cn2)cc1)N1CC[C@](CC(C)(C)O)(c2ccccc2)OC1=O
Key: > 0.75 h

Just for reference, ChEMBL document CHEMBL4033714 is where these values come from.
